# subject_of_test: Mtb MurX (Mycobacterium tuberculosis, UniProt P9WMW7)
# Sequence (P9WMW7 whole entry): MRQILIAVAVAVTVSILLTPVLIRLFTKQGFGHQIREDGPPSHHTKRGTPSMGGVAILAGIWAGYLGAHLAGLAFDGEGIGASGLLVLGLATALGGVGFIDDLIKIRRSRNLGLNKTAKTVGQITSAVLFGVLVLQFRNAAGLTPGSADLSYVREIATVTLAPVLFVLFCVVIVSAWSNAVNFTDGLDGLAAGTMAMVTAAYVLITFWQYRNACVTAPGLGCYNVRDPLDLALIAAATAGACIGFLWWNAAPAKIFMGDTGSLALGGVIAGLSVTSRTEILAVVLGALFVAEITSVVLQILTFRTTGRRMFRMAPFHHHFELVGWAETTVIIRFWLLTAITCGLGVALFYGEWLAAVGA
# test_method_notes: Radiochemical (TLC) MurX-MurG coupled inhibition assay in Mtb mc2 6230 membranes
# Type: biochemical
# assay_conditions: 200 nM inhibitor, decrease in lipid II formation
Each entry below carries its reported inhibition at 0.2 µM.
// units = %; emit number, no label

Illustrative cases are given below, each with its answer.
test_smiles	observed_value
C[C@@H]([C@H](NC(=O)[C@H](Cc1ccc(O)cc1)NC(=O)N[C@@H](Cc1c[nH]c2ccccc12)C(=O)O)C(=O)NC[C@H]1C[C@@H](O)[C@H](n2ccc(=O)[nH]c2=O)O1)N(C)C(=O)CN	40
CC(C)C[C@H](NC(=O)N[C@@H](Cc1c[nH]c2ccccc12)C(=O)O)C(=O)N[C@H](C(=O)NC[C@H]1C[C@@H](O)[C@H](n2ccc(=O)[nH]c2=O)O1)[C@H](C)N(C)C(=O)[C@@H](N)Cc1cccnc1	5
CC(C)C[C@H](NC(=O)N[C@@H](Cc1c[nH]c2ccccc12)C(=O)O)C(=O)N[C@H](C(=O)NC[C@H]1C[C@@H](O)[C@H](n2ccc(=O)[nH]c2=O)O1)[C@H](C)N(C)C(=O)[C@@H](N)CCCCN	7

Lab note: next compound to report on.
Q: What does the data say about its inhibition at 0.2 µM? Entry: `CC(C)C[C@H](NC(=O)N[C@@H](Cc1c[nH]c2ccccc12)C(=O)O)C(=O)N[C@H](C(=O)NC[C@H]1C[C@@H](O)[C@H](n2ccc(=O)[nH]c2=O)O1)[C@H](C)N(C)C(=O)[C@@H](N)[C@@H](C)O`
Result: 20

---

# test_method_notes: in vitro
# Format: in vitro ADME
# assay_conditions: mouse, microsomes
# Procedure: The metabolic stability was assessed by incubating each test compound (0.5 μM) in duplicate with human and mouse liver microsomes (XenoTech, Kansas City, KS) at 37 °C and 0.4 mg ml^−1 microsomal protein. […] Samples were centrifuged and the supernatant analysed by LCMS. […] Degradation rate half-lives and in vitro intrinsic clearance values were determined from the first order degradation profiles.
Each entry below carries its reported microsomal CLint at 0.5 μM.
// units = µL/min/mg; emit number, no label

test_smiles	observed_value
C[C@@H]([C@H](NC(=O)[C@H](CC1CCCCC1)NC(=O)N[C@@H](Cc1c[nH]c2ccccc12)C(=O)O)C(=O)NC[C@H]1C[C@@H](O)[C@H](n2ccc(=O)[nH]c2=O)O1)N(C)C(=O)[C@@H](N)Cc1cccc(O)c1	7

Lab note: next compound to report on.
Q: What does the data say about its microsomal CLint at 0.5 μM? Entry: `C[C@@H]([C@H](NC(=O)[C@H](Cc1ccc2ccccc2c1)NC(=O)N[C@@H](Cc1c[nH]c2ccccc12)C(=O)O)C(=O)NC[C@H]1C[C@@H](O)[C@H](n2ccc(=O)[nH]c2=O)O1)N(C)C(=O)CN`
Result: 10

---

# System: Mtb H37Rv
# test_method_notes: Resazurin reduction microplate assay, growth inhibition of Mtb H37Rv
# Format: cell-based, Mycobacterium tuberculosis
# assay_conditions: Mycobacterium tuberculosis, H37RV, average of two independent experiments, each in triplicate; read-out: MIC50 Mtb H37Rv
Each entry below carries its reported MIC50.
// units = µM; emit number, no label

compound	subject_of_test	observed_value
CC(C)C[C@H](NC(=O)N[C@@H](Cc1c[nH]c2ccccc12)C(=O)O)C(=O)N[C@H](C(=O)NC[C@H]1C[C@@H](O)[C@H](n2ccc(=O)[nH]c2=O)O1)[C@H](C)N(C)C(=O)[C@H](C)N [Compound 13]	Mtb H37Rv	0.6

Lab note: next compound to report on.
Q: What does the data say about its MIC50? Entry: CC(C)C[C@H](NC(=O)N[C@@H](Cc1c[nH]c2ccccc12)C(=O)O)C(=O)N[C@H](C(=O)NC[C@H]1C[C@@H](O)[C@H](n2ccc(=O)[nH]c2=O)O1)[C@H](C)N(C)C(=O)[C@@H](N)CCCN [Compound 16]
Result: 0.95

---

# Test system: Mtb H37Rv
# test_method_notes: Resazurin reduction microplate assay, growth inhibition of Mtb H37Rv
# Assay type: cell-based, Mycobacterium tuberculosis
# assay_conditions: Mycobacterium tuberculosis, H37RV, average of two independent experiments, each in triplicate; read-out: MIC50 Mtb H37Rv
Each entry below carries its reported MIC50.
// units = µM; emit number, no label

Illustrative cases are given below, each with its answer.
molecule	MIC50 (µM)
CC(C)C[C@H](NC(=O)N[C@@H](Cc1c[nH]c2ccccc12)C(=O)O)C(=O)N[C@H](C(=O)NC[C@H]1C[C@@H](O)[C@H](n2ccc(=O)[nH]c2=O)O1)[C@H](C)N(C)C(=O)[C@@H](N)Cc1cccc(O)c1 [Compound 5, Dihydrosansanmycin B]	0.3
C[C@@H]([C@H](NC(=O)[C@H](CC[S+](C)[O-])NC(=O)N[C@@H](Cc1c[nH]c2ccccc12)C(=O)O)C(=O)NC[C@H]1C[C@@H](O)[C@H](n2ccc(=O)[nH]c2=O)O1)N(C)C(=O)[C@@H](N)Cc1cccc(O)c1 (stereo partly shown) [Compound 6, Dihydrosansanmycin C]	18.5
C[C@@H]([C@H](NC(=O)[C@H](Cc1ccc(C(F)(F)F)cc1)NC(=O)N[C@@H](Cc1c[nH]c2ccccc12)C(=O)O)C(=O)NC[C@H]1C[C@@H](O)[C@H](n2ccc(=O)[nH]c2=O)O1)N(C)C(=O)CN	0.2

Q: # value lookup — system Mtb H37Rv, readout MIC50, item `C[C@@H]([C@H](NC(=O)[C@H](CC1CCCCC1)NC(=O)N[C@@H](Cc1c[nH]c2ccccc12)C(=O)O)C(=O)NC[C@H]1C[C@@H](O)[C@H](n2ccc(=O)[nH]c2=O)O1)N(C)C(=O)CN`
Result: 0.08
